Taken from patent US11912693B2.

Reported inhibition in vivo at 3 mg/kg is given for each of the following compounds.
# Test system: paclitaxel induced peripheral neuropathy
# TEST DESCRIPTION: Reversal of allodynia induced by paclitaxel in mice (s.c. or p.o., von Frey frequency method)
# Type: in vivo, c57bl/6 mice
# CONDITIONS: Mus musculus, po, 1 h, 3 mg/kg p.o., tested 60 min after dosing, read-out: Screen @ 3 mg/kg po (% MPE)

Solved cases below.
>>> assay_result("CCC1(CC)CC(=O)c2cc(-c3nc(-c4ccc(NC(C)=O)cc4OC(F)(F)F)no3)ccc2O1")
"> 50%"
>>> assay_result("N#Cc1cc(-c2nc(-c3ccc4c(c3)NC(=O)CC4)no2)ccc1NCC1CC1")
"< 50%"
>>> assay_result("CCC1(CC)CC(=O)c2cc(-c3nc(-c4cnccc4C(F)(F)F)no3)ccc2O1")
"> 50%"
>>> assay_result("COc1cc(NC(C)=O)ccc1-c1noc(-c2ccc(NC(C)C)c(C#N)c2)n1")
"> 50%"
>>> assay_result("CC(C)Nc1ccc(-c2nc(-c3ccc4c(c3)CCNC4=O)no2)cc1C#N")
"> 50%"

IN: State its inhibition in vivo at 3 mg/kg on paclitaxel induced peripheral neuropathy: N#Cc1cc(-c2nc(-c3ccc4c(c3)CNC4=O)no2)ccc1NCC1CC1
OUT: > 50%

IN: Provide the documented inhibition in vivo at 3 mg/kg with paclitaxel induced peripheral neuropathy as the system for Cc1cn(C)nc1-c1noc(-c2ccc3c(c2)nnn3C(C)C)n1
OUT: < 50%

IN: Could you share what inhibition in vivo at 3 mg/kg was measured for CC(C)Nc1ccc(-c2nnc(-c3ccc4ncccc4c3)o2)cc1C#N , tested on paclitaxel induced peripheral neuropathy?
OUT: > 50%

###

Below is a list of entries, each paired with its recorded hS1P1 B-arrestin2 pEC50 value.
# EXPERIMENTAL SYSTEM: human sphingosine-1-phosphate receptor 1 (S1P1) (Homo sapiens (Human))
# TEST DESCRIPTION: β-Arrestin2 recruitment assay (PathHunter), S1P1 CHO-K1 cells
# Format: cell-based
# CONDITIONS: β-arrestin2 recruitment, S1P1 CHO-K1 cells
# Sequence (P21453 whole entry, looked up): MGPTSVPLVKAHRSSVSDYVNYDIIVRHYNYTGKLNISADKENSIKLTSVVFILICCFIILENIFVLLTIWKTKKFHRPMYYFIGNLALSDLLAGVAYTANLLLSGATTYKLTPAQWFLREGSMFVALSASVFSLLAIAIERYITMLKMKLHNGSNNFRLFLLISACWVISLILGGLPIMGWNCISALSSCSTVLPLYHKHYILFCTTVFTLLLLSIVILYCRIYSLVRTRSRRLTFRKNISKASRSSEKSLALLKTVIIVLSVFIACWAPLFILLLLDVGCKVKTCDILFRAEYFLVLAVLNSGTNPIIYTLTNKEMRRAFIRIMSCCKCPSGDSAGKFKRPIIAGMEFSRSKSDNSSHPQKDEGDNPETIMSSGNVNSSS
# Sequence (P32121 whole entry partner, looked up): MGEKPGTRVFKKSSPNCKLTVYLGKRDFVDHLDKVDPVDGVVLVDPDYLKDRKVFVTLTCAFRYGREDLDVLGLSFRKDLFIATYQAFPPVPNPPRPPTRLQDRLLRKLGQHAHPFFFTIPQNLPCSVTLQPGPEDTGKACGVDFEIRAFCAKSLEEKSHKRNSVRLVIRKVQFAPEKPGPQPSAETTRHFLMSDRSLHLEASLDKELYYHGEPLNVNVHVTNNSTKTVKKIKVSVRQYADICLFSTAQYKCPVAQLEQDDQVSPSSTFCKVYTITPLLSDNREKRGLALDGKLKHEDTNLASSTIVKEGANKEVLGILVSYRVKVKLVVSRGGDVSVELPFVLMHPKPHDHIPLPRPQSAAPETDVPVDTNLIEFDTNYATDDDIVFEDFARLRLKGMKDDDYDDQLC

// solved cases for hS1P1 B-arrestin2 pEC50 follow
>>> assay_result("CC(C)n1nnc2cc(-c3noc(-c4cnccn4)n3)ccc21")
"<5"
>>> assay_result("CC(C)Oc1ccc(-c2ncc(-c3ccc4c(c3)nnn4C(C)C)cn2)cc1C#N")
">5"
>>> assay_result("COc1ccccc1-c1noc(-c2ccc3c(cnn3C(C)C)c2)n1")
">5"

IN: Could you tell me which hS1P1 B-arrestin2 pEC50 is on file for CCC1(CC)CC(=O)c2cc(-c3nc(-c4ccc(NS(C)(=O)=O)cc4)no3)ccc2O1 ?
OUT: >5

###

# EXPERIMENTAL SYSTEM: sphingosine-1-phosphate receptor 5 (S1P5) (Homo sapiens (Human), UniProt Q9H228)
# Sequence (Q9H228 whole entry): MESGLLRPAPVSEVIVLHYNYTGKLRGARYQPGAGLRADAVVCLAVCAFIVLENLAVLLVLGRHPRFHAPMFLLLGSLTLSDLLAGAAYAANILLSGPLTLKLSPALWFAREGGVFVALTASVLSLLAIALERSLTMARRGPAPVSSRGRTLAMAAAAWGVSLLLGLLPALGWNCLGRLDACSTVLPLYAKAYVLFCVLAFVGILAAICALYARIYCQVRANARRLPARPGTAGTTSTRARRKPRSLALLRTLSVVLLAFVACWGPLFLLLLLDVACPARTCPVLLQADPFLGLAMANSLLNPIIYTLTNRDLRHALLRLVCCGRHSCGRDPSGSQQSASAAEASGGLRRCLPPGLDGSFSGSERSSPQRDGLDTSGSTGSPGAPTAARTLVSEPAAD
# TEST DESCRIPTION: Inhibition of cAMP production (HTRF), S1P5 CHO-K1 cells
# Type: cell-based
# CONDITIONS: inhibition of cAMP production, hS1P5
VALUE TYPE: hS1P5 cAMP pEC50

Check out these entries, answers already filled in.
>>> assay_result("COc1ccccc1-c1nc(-c2ccc3c(ccn3C(C)C)c2)no1")
"<5.0"
>>> assay_result("CCC1(CC)CC(=O)c2cc(-c3nc(-c4ccc(C(=O)NC)cc4)no3)ccc2O1")
"<5.0"
>>> assay_result("C=CCNc1ccc(-c2nc(-c3cn[nH]c3)no2)cc1C#N")
">5.0"
>>> assay_result("C=CCNc1ccc(-c2nc(-c3ccc4sc(N)nc4c3)no2)cc1C#N")
"<5.0"
>>> assay_result("CCC1(CC)CC(=O)c2cc(-c3nc(-c4ccc5[nH]ncc5c4)no3)ccc2O1")
"<5.0"
>>> assay_result("CCC1(CC)CC(=O)c2cc(-c3nc(-c4cccnc4OC)no3)ccc2O1")
">5.0"
>>> assay_result("COc1ccc(-c2noc(-c3ccc4c(c3)nnn4CC(C)(C)O)n2)c(C)c1")
"<5.0"

IN: Request - read-out hS1P5 cAMP pEC50 | tested on sphingosine-1-phosphate receptor 5 (S1P5) (Homo sapiens (Human), UniProt Q9H228) | molecule Cc1ccncc1-c1noc(-c2ccc3c(c2)nnn3C2CCC2)n1
OUT: <5.0

###

# EXPERIMENTAL SYSTEM: human sphingosine-1-phosphate receptor 1 (S1P1) (Homo sapiens (Human), UniProt P21453)
# TEST DESCRIPTION: Inhibition of cAMP production (HTRF cAMP HiRange), S1P1 CHO-K1 cells
# Format: cell-based
# CONDITIONS: inhibition of cAMP production, S1P1 CHO-K1 cells
# Sequence (P21453 whole entry, looked up): as the sequence (P21453 whole entry, looked up) above
// reported hS1P1 cAMP pEC50 per item

>>> assay_result("CCCC1(CCC)CC(=O)c2cc(-c3nc(-c4cccnc4)no3)ccc2O1")
"<6.5"
>>> assay_result("C=CCn1nc2ccc(-c3nc(-c4ccccc4)no3)cc2n1")
"<6.5"
>>> assay_result("Fc1cc(-c2noc(-c3ccc4c(c3)nnn4C3CCCC3)n2)ccc1C(F)(F)F")
"<6.5"
>>> assay_result("Cc1ccccc1-c1noc(-c2ccc3c(c2)nnn3C2CCC2)n1")
">6.5"

IN: Given the compound N#Cc1cc(-c2nnc(-c3cccc4[nH]cnc34)o2)ccc1NCC(F)F , what is its reported hS1P1 cAMP pEC50?
OUT: >6.5

IN: Reported hS1P1 cAMP pEC50, compound Cc1ccncc1-c1noc(-c2ccc3c(c2)nnn3C(C)C)n1 : ____
OUT: >6.5

IN: Tell me the measured hS1P1 cAMP pEC50 of COc1cccc(-c2nc(-c3ccc4c(c3)nnn4C3CCCC3)no2)c1 , please.
OUT: <6.5

IN: Given the compound Brc1ccccc1-c1nc(-c2ccc3c(c2)nnn3C2CCCCC2)no1 , what is its reported hS1P1 cAMP pEC50?
OUT: >6.5

IN: Bench note: what hS1P1 cAMP pEC50 did CC(C)n1ncc2cc(-c3nc(-c4ccccc4Cl)no3)ccc21 show?
OUT: >6.5

IN: Give the measured hS1P1 cAMP pEC50 of COCCn1cc(-c2ccccc2C)cc1-c1ccc2c(c1)nnn2C(C)C .
OUT: <6.5

IN: Endpoint output: hS1P1 cAMP pEC50 of COc1ccccc1-c1noc(-c2ccc3c(c2)nnn3C(C)(C)C)n1 . Value?
OUT: >6.5

IN: Which value of hS1P1 cAMP pEC50 has been reported for CCC1(CC)CC(=O)c2cc(-c3nc(-c4ccc(C(=O)NC)cc4)no3)ccc2O1 in the records?
OUT: >6.5

IN: Report hS1P1 cAMP pEC50 for C=CCNc1ccc(-c2nc(-c3ccc4[nH]cnc4c3)no2)cc1C#N please.
OUT: >6.5

IN: Quick check: hS1P1 cAMP pEC50 of COc1cnccc1-c1nc(-c2ccc3c(ccn3C(C)C)c2)no1 ?
OUT: >6.5

IN: Which hS1P1 cAMP pEC50 value is on record for Cc1ccccc1-c1cc(-c2ccc3c(c2)nnn3C(C)C)n(C)c1 ?
OUT: <6.5

IN: Looking for the measured hS1P1 cAMP pEC50 of COc1ccccc1-c1noc(-c2ccc3c(c2)nnn3C2CCOCC2)n1 , can you help?
OUT: <6.5

IN: What measured hS1P1 cAMP pEC50 goes with CC(C)n1nnc2cc(-c3nc(-c4ccccc4Br)co3)ccc21 ?
OUT: >6.5

IN: I have this compound here, COc1cccc(-c2csc(-c3ccc4c(ccn4C(C)C)c3)n2)c1 , and I need its recorded hS1P1 cAMP pEC50.
OUT: <6.5

###

# EXPERIMENTAL SYSTEM: UniProt P21453
# TEST DESCRIPTION: β-Arrestin2 recruitment assay (PathHunter), S1P1 CHO-K1 cells
# Assay type: cell-based
# CONDITIONS: CHO-K1; efficacy (SPAN) normalized to fingolimod; read-out: hS1P1 B-arrestin2 SPAN
VALUE TYPE: Emax

>>> assay_result("Clc1ncccc1-c1noc(-c2ccc3c(c2)nnn3CC2CC2)n1 [Compound 199]")
"< 75%"
>>> assay_result("N#Cc1cc(-c2nnc(-c3ccc4[nH]ncc4c3)o2)ccc1NCCF [Compound 353]")
"> 75%"
>>> assay_result("CC(C)Nc1ccc(-c2nc(-c3ccc4c(c3)CCC(=O)N4)no2)cc1C#N [Compound 259]")
"< 75%"

We now examine a further compound.
IN: Item under review: CCC1(CC)CC(=O)c2cc(-c3nnc(-c4ccc5c(c4)nnn5C(C)C)s3)ccc2O1 [Compound 67] . Reported Emax?
OUT: < 75%

###

# EXPERIMENTAL SYSTEM: human sphingosine-1-phosphate receptor 1 (S1P1) (Homo sapiens (Human))
# TEST DESCRIPTION: Inhibition of cAMP production (HTRF cAMP HiRange), S1P1 CHO-K1 cells
# Assay type: cell-based
# CONDITIONS: CHO-K1; efficacy (SPAN) normalized to fingolimod; read-out: hS1P1 cAMP SPAN
VALUE TYPE: Emax

>>> assay_result("Cc1oc(-c2ccc3c(c2)nnn3C(C)C)nc1-c1ccccc1 [Compound 247]")
"< 75%"
>>> assay_result("O=C1CCOc2ccc(-c3nc(-c4cccnc4)no3)cc21 [Compound 102]")
"< 75%"
>>> assay_result("N#Cc1cc(-c2nc(-c3ccc4c(c3)CCC(=O)N4)no2)ccc1NCC1CC1 [Compound 302]")
"> 75%"

IN: Which Emax value belongs to Cc1ccsc1-c1noc(-c2ccc3c(c2)nnn3CC(C)C)n1 [Compound 75] ?
OUT: < 75%

IN: What does the record list as Emax for CC(C)n1ncc2cc(-c3nc(-c4ccccc4Cl)no3)ccc21 [Compound 330] ?
OUT: > 75%

IN: // returns reported Emax for input Cc1ccsc1-c1noc(-c2ccc3c(c2)nnn3CC(C)(C)O)n1 [Compound 140]
OUT: > 75%

IN: Can you look up the measured Emax of Cc1ccncc1-c1noc(-c2ccc3c(c2)nnn3C2CC2)n1 [Compound 94] for me?
OUT: > 75%

IN: Please look up its Emax: CC(C)n1nnc2cc(-c3nc(-c4ccccc4Br)no3)ccc21 [Compound 282]
OUT: > 75%

IN: Endpoint output: Emax of Cc1ccsc1-c1noc(-c2ccc3c(c2)nnn3CC2CC2)n1 [Compound 239] . Value?
OUT: < 75%

IN: # input compound: Cc1ccc2nc(-c3ccc4c(c3)nnn4C(C)C)oc2c1 [Compound 420] ; wanted: its Emax
OUT: > 75%

IN: Fill blank: measured Emax of the compound COc1cc(-c2nc(-c3ccc4c(c3)nnn4C(C)C)no2)ccn1 [Compound 116] is ____.
OUT: < 75%

IN: GET /values?readout=Emax&item= CCC1(CC)CC(=O)c2cc(-c3nc(-c4ccncc4O)no3)ccc2O1 [Compound 312]
OUT: > 75%

IN: Find the recorded Emax belonging to Cc1cnccc1-c1nc(-c2ccc3c(c2)nnn3C(C)C)no1 [Compound 8] and report it.
OUT: < 75%

IN: Return reported Emax; argument: Cc1cnccc1-c1nc(-c2ccc3c(ccn3C(C)C)c2)no1 [Compound 142]
OUT: > 75%

IN: Tell me the measured Emax of Fc1ccc(-c2noc(-c3ccc4c(c3)nnn4C3CCCC3)n2)cc1 [Compound 232] , please.
OUT: < 75%

IN: Query (compound): CC(C)Nc1ccc(-c2nc(-c3ccc4c(c3)CCC(=O)N4)no2)cc1C#N [Compound 259] ; field requested: Emax
OUT: > 75%

IN: What value of measured Emax is listed for CCC1(CC)CC(=O)c2cc(-c3nc(-c4ccc(C(N)=O)cc4)no3)ccc2O1 [Compound 179] ?
OUT: > 75%

IN: Recorded Emax for Cc1cn(C)nc1-c1noc(-c2ccc3c(c2)nnn3C(C)C)n1 [Compound 519] , please?
OUT: > 75%

IN: Data request, read-out Emax, for CCC1(CC)CC(=O)c2cc(-c3nnc(-c4ccccc4OC)s3)ccc2O1 [Compound 178]
OUT: > 75%
